experiment: Multiple ascending dose IV study in healthy adult subjects (safety, PK); type: in vivo, human; conditions: human, plasma, intravenous, 200 mg, 200 mg weekly, Day 1
*1 amine or outer side, *2 acyl side, *3 side chain or, on linkers, in order; H or OH if unused. Where a SMILES comes first, the peptide text is derived from it. Bridges are numbered along the chain shown (N, C = ends). [ ]: non-standard residue; d: D form. The star is where a group is joined. Orn(4R-OH,5R-OCH2CH2NMe3+) = C[N+](C)(C)CCO[C@@H](N[*:3])[C@H](O)C[C@H](N[*:1])C(=O)[*:2]; pTerphenylCO(4''-OnC5H11) = CCCCCOc1ccc(-c2ccc(-c3ccc(C(=O)*)cc3)cc2)cc1; hTyr(3S-OH,4S-OH) = N[C@H](C(=O)O)[C@H](O)[C@@H](O)c1ccc(O)cc1; Pro(3S-OH,4S-Me) = C[C@H]1CN[C@H](C(=O)O)[C@H]1O; Hyp = O=C(O)[C@@H]1C[C@@H](O)CN1
endpoint: Cmax
Number first, unit second: that is the form wanted.

Prompt: Tell me its Cmax given CCCCCOc1ccc(-c2ccc(-c3ccc(C(=O)N[C@H]4C[C@@H](O)[C@@H](OCC[N+](C)(C)C)NC(=O)[C@@H]5[C@@H](O)[C@@H](C)CN5C(=O)[C@H]([C@@H](C)O)NC(=O)[C@H]([C@H](O)[C@@H](O)c5ccc(O)cc5)NC(=O)[C@@H]5C[C@@H](O)CN5C(=O)[C@H]([C@@H](C)O)NC4=O)cc3)cc2)cc1 [CD101] ({pTerphenylCO(4''-OnC5H11)}-[Orn(4R-OH,5R-OCH2CH2NMe3+)]T[Hyp][hTyr(3S-OH,4S-OH)]T[Pro(3S-OH,4S-Me)]; lactam 1-C) as the entry.
Completion: 10600 ng/mL
